- Assay Remarks: Cytotoxicity against human A590 cells measured after 48 hrs by CCK8 assay
- Format: functional, cell-based
The entries below come with measured IC50 values attached.
Field format: number, assumed µM, no unit text.

What measured IC50 goes with Cc1ccc(S(=O)(=O)n2cc(/C=N\NC(=N)N)c3ccccc32)cc1 ?
12.2

GET /values?readout=IC50&item= Cc1ccc(S(=O)(=O)n2cc(/C=N\NC(=N)N)c3cc(Br)ccc32)cc1
15.1

Which IC50 is reported for this compound? C/C(=N/NC(=N)N)c1cn(S(=O)(=O)c2ccc(C)cc2)c2ccc(Br)cc12
4.44

====

- Assay Remarks: Selectivity index, ratio of IC50 for HEK293T cells to MIC for multidrug-resistant Escherichia coli ATCC BAA-196
- Format: toxicity
- Assay Conditions: human, read-out: Selectivity Index
Flag rule - selectivity ratio less than 8 flags 1; the remaining entries get 0.

Check out these entries, answers already filled in.
1) C/C(=N/NC(=N)N)c1cn(S(=O)(=O)c2ccc(C)cc2)c2ccc(Br)cc12 0
2) Cc1ccc(S(=O)(=O)n2cc(/C=N\NC(=N)N)c3cc(Br)ccc32)cc1 0
3) Cc1ccc(S(=O)(=O)n2cc(/C=N\NC(=N)N)c3ccccc32)cc1 1
4) C/C(=N/NC(=N)N)c1cn(S(=O)(=O)c2ccc(C)cc2)c2ccccc12 1
5) CC/C(=N/NC(=N)N)c1cn(S(=O)(=O)c2ccc(C)cc2)c2ccc(Br)cc12 1

Alright, here's another compound for you.
Is the reported selectivity ratio for N=C(N)N/N=C\c1cn(S(=O)(=O)c2ccccc2)c2ccc(Br)cc12 strictly below 8?
0

====

- Test system: HEK-293T
- Assay Remarks: Cytotoxicity against HEK293T cells measured after 48 hrs by CCK8 assay
- Assay type: cell-based
- Assay Conditions: Homo sapiens
The compounds listed here are annotated with their pIC50.
The meaning of pIC50 here: minus log10 of the concentration in molar units.

Consider the following illustrative entries.
1. Cc1ccc(S(=O)(=O)n2cc(/C=N\NC(=N)N)c3ccccc32)cc1 4.06
2. Cc1ccc(S(=O)(=O)n2cc(/C=N\NC(=N)N)c3cc(Br)ccc32)cc1 4.13
3. C/C(=N/NC(=N)N)c1cn(S(=O)(=O)c2ccc(C)cc2)c2ccc(Br)cc12 4.25

Any idea what pIC50 was measured for C/C(=N/NC(=N)N)c1cn(S(=O)(=O)c2ccc(C)cc2)c2ccccc12 ?
4.28

Any idea what its pIC50 is? The compound is N=C(N)N/N=C\c1cn(S(=O)(=O)c2ccccc2)c2ccc(Br)cc12
4.15

Dear colleague, I am looking for the recorded pIC50 of the following compound: CC/C(=N/NC(=N)N)c1cn(S(=O)(=O)c2ccc(C)cc2)c2ccc(Br)cc12
4.24

====

The entries below come with measured selectivity ratio values attached.
- Assay Remarks: Selectivity index, ratio of IC50 for HEK293T cells to MIC for Bacillus subtilis CMCC 63501
- Type: toxicity
- Assay Conditions: human, read-out: Selectivity Index
// keep it numeric: no unit symbol after the value

// worked examples, selectivity ratio included
1) Cc1ccc(S(=O)(=O)n2cc(/C=N\NC(=N)N)c3cc(Br)ccc32)cc1 31.8
2) CC/C(=N/NC(=N)N)c1cn(S(=O)(=O)c2ccc(C)cc2)c2ccc(Br)cc12 26.6
3) C/C(=N/NC(=N)N)c1cn(S(=O)(=O)c2ccc(C)cc2)c2ccc(Br)cc12 12.6
4) C/C(=N/NC(=N)N)c1cn(S(=O)(=O)c2ccc(C)cc2)c2ccccc12 4.89
5) N=C(N)N/N=C\c1cn(S(=O)(=O)c2ccccc2)c2ccc(Br)cc12 15

Requested read-out: selectivity ratio. Entry: Cc1ccc(S(=O)(=O)n2cc(/C=N\NC(=N)N)c3ccccc32)cc1
15.4

====

- System: Bacillus subtilis
- Assay Remarks: Antibacterial activity against Bacillus subtilis CMCC 63501 measured after 24 hrs by ELISA
- Type: functional
- Assay Conditions: CMCC 63501, 24 h
// reported MIC for each item listed
The reply should contain only the number, in µM.

Some entries whose results are on file:
1. CC/C(=N/NC(=N)N)c1cn(S(=O)(=O)c2ccc(C)cc2)c2ccccc12 10.4
2. Cc1ccc(S(=O)(=O)n2cc(/C=N\NC(=N)N)c3cc(Br)ccc32)cc1 2.31
3. CC/C(=N/NC(=N)N)c1cn(S(=O)(=O)c2ccccc2)c2ccc(Br)cc12 4.47
4. C/C(=N/NC(N)=S)c1cn(S(=O)(=O)c2ccccc2)c2ccccc12 172

Next compound, please.
// fetch Bacillus subtilis MIC for CC/C(=N/NC(N)=S)c1cn(S(=O)(=O)c2ccccc2)c2ccc(Br)cc12
69

====

Below, each of the molecules is paired with its reported MIC value.
- System: Bacillus subtilis
- Assay Remarks: Antibacterial activity against Bacillus subtilis CMCC 63501 measured after 24 hrs by ELISA
- Assay type: functional
- Assay Conditions: CMCC 63501, 24 h
State just the number; it will be interpreted in µM.

These solved cases illustrate the format of a correct answer.
Molecule	Tested On	Outcome Measure	Measurement Unit	Result Number
CC/C(=N/NC(N)=S)c1cn(S(=O)(=O)c2ccccc2)c2ccccc12	Bacillus subtilis	MIC	µM	82.9
C/C(=N/NC(=N)N)c1cn(S(=O)(=O)c2ccc(C)cc2)c2ccc(Br)cc12	Bacillus subtilis	MIC	µM	4.47
NC(=O)N/N=C\c1cn(S(=O)(=O)c2ccccc2)c2ccccc12	Bacillus subtilis	MIC	µM	93.6

Let us examine a further case.
Field: MIC (Bacillus subtilis). Entry: CCn1cc(C(=O)O)c(=O)c2cc(F)c(N3CCNCC3)cc21 [NORFLOXACIN]
6.27

====

- Assay Remarks: Selectivity index, ratio of IC50 for HEK293T cells to MIC for Staphylococcus aureus CMCC 25923
- Format: toxicity
- Assay Conditions: human, read-out: Selectivity Index
selectivity ratio reference
Enter a number only.

1) N=C(N)N/N=C\c1cn(S(=O)(=O)c2ccccc2)c2ccc(Br)cc12 30.2
2) C/C(=N/NC(=N)N)c1cn(S(=O)(=O)c2ccc(C)cc2)c2ccccc12 9.78
3) Cc1ccc(S(=O)(=O)n2cc(/C=N\NC(=N)N)c3ccccc32)cc1 7.68
4) Cc1ccc(S(=O)(=O)n2cc(/C=N\NC(=N)N)c3cc(Br)ccc32)cc1 31.8
5) CC/C(=N/NC(=N)N)c1cn(S(=O)(=O)c2ccc(C)cc2)c2ccc(Br)cc12 13.3

Let us examine a further case.
Requested read-out: selectivity ratio. Entry: C/C(=N/NC(=N)N)c1cn(S(=O)(=O)c2ccc(C)cc2)c2ccc(Br)cc12
25.2

====

- System: Pseudomonas aeruginosa
- Assay Remarks: Antibacterial activity against Pseudomonas aeruginosa CMCC 10104 measured after 24 hrs by ELISA
- Assay type: functional
- Assay Conditions: CMCC 10104, 24 h
A collection of compounds and their measured MIC
Give the value in µM but do not write µM after it.

Compound	MIC / µM
CCn1cc(C(=O)O)c(=O)c2cc(F)c(N3CCNCC3)cc21 [NORFLOXACIN]	12.5
C/C(=N/NC(=N)N)c1cn(S(=O)(=O)c2ccc(C)cc2)c2ccccc12	10.8
Cc1ccc(S(=O)(=O)n2cc(/C=N\NC(=N)N)c3ccccc32)cc1	11.3

Which MIC value is on record for N=C(N)N/N=C\c1cn(S(=O)(=O)c2ccccc2)c2ccc(Br)cc12 ?
9.55

====

- Assay Remarks: Selectivity index, ratio of IC50 for HEK293T cells to MIC for Enterococcus faecalis CMCC 29212
- Type: toxicity
- Assay Conditions: human, read-out: Selectivity Index
Known selectivity ratio of a selection of compounds
Lab note: write the figure by itself, no unit.

The cases that follow already have their selectivity ratio on record.
1) CC/C(=N/NC(=N)N)c1cn(S(=O)(=O)c2ccc(C)cc2)c2ccc(Br)cc12 13.3
2) N=C(N)N/N=C\c1cn(S(=O)(=O)c2ccccc2)c2ccc(Br)cc12 3.75
3) C/C(=N/NC(=N)N)c1cn(S(=O)(=O)c2ccc(C)cc2)c2ccc(Br)cc12 6.31
4) C/C(=N/NC(=N)N)c1cn(S(=O)(=O)c2ccc(C)cc2)c2ccccc12 1.22
5) Cc1ccc(S(=O)(=O)n2cc(/C=N\NC(=N)N)c3cc(Br)ccc32)cc1 7.95

Could you now consider this next compound?
Could you tell me which selectivity ratio is on file for Cc1ccc(S(=O)(=O)n2cc(/C=N\NC(=N)N)c3ccccc32)cc1 ?
1.92

====

- Test system: Bacillus subtilis
- Assay Remarks: Antibacterial activity against Bacillus subtilis CMCC 63501 measured after 24 hrs by ELISA
- Assay type: functional
- Assay Conditions: CMCC 63501, 24 h
Outcome Measure: MIC (µM)
Provide the reading as a plain figure in µM.

1) C/C(=N/NC(=N)N)c1cn(S(=O)(=O)c2ccc(C)cc2)c2ccccc12 10.8
2) NC(=O)N/N=C\c1cn(S(=O)(=O)c2ccccc2)c2ccc(Br)cc12 19.1
3) N=C(N)N/N=C\c1cn(S(=O)(=O)c2ccccc2)c2ccc(Br)cc12 4.77

# get_value(readout='MIC', item= CC1(C)S[C@@H]2[C@H](NC(=O)Cc3ccccc3)C(=O)N2[C@H]1C(=O)O )
383

Which MIC reading was recorded for the compound C/C(=N/NC(=N)N)c1cn(S(=O)(=O)c2ccccc2)c2ccc(Br)cc12 ?
9.24

Please report the recorded MIC for Cc1ccc(S(=O)(=O)n2cc(/C=N\NC(N)=O)c3ccccc32)cc1 .
44.9
